Tested on: polypeptide having α-isomaltosylglucosaccharide-forming enzyme activity, obtained in Experiment 1-3
Test: Reaction product from maltooligosaccharide (sugar composition by HPLC)
Format: biochemical, Bacillus globisporus C11
Set-up: unit not given here
Conditions: 1% (w/v) substrate, two units/g-solid, 35° C., pH 6.0, 8 hours
I would appreciate it if you labelled entries Met when Sugar composition of reaction mixture, substrate Maltotriose is 2 or higher, otherwise Not met.

Here are 3 compounds together with their reported answers.
1. OC[C@H]1O[C@H](O[C@H]2[C@H](O)[C@@H](O)[C@H](O)O[C@@H]2CO)[C@H](O)[C@@H](O)[C@@H]1O ... Met
2. OC[C@H]1O[C@H](O[C@H]2[C@H](O)[C@@H](O)[C@@H](O[C@H]3[C@H](O)[C@@H](O)[C@@H](O[C@H]4[C@H](O)[C@@H](O)C(O)O[C@@H]4CO)O[C@@H]3CO)O[C@@H]2CO)[C@H](O)[C@@H](O)[C@@H]1O (stereo partly shown) ... Not met
3. OC[C@H]1O[C@H](OC[C@H]2OC(O)[C@H](O)[C@@H](O)[C@@H]2O)[C@H](O)[C@@H](O)[C@@H]1O (stereo partly shown) ... Not met

Q. I'd appreciate it if you could say whether OC[C@H]1O[C@H](OC[C@H]2O[C@H](O[C@H]3[C@H](O)[C@@H](O)[C@@H](O[C@H]4[C@H](O)[C@@H](O)[C@@H](O[C@H]5[C@H](O)[C@@H](O)[C@@H](O[C@H]6[C@H](O)[C@@H](O)C(O)O[C@@H]6CO)O[C@@H]5CO)O[C@@H]4CO)O[C@@H]3CO)[C@H](O)[C@@H](O)[C@@H]2O)[C@H](O)[C@@H](O)[C@@H]1O (stereo partly shown) has Sugar composition of reaction mixture, substrate Maltotriose at least equal to 2.
A. Not met

Q. Lookup OC[C@H]1O[C@H](OC[C@H]2O[C@H](O[C@H]3[C@H](O)[C@@H](O)C(O)O[C@@H]3CO)[C@H](O)[C@@H](O)[C@@H]2O)[C@H](O)[C@@H](O)[C@@H]1O (stereo partly shown)
A. Not met

Q. Lookup OC[C@H]1O[C@H](OC[C@H]2O[C@H](O[C@H]3[C@H](O)[C@@H](O)[C@@H](O[C@H]4[C@H](O)[C@@H](O)[C@@H](O[C@H]5[C@H](O)[C@@H](O)C(O)O[C@@H]5CO)O[C@@H]4CO)O[C@@H]3CO)[C@H](O)[C@@H](O)[C@@H]2O)[C@H](O)[C@@H](O)[C@@H]1O (stereo partly shown)
A. Met

Q. Lookup "OC[C@H]1O[C@H](OC[C@H]2O[C@H](O[C@H]3[C@H](O)[C@@H](O)[C@@H](O[C@H]4[C@H](O)[C@@H](O)[C@@H](O)O[C@@H]4CO)O[C@@H]3CO)[C@H](O)[C@@H](O)[C@@H]2O)[C@H](O)[C@@H](O)[C@@H]1O"
A. Met

###

Test system: polypeptide having α-isomaltosylglucosaccharide-forming enzyme activity, obtained in Experiment 1-3
Assay: Reaction product from maltooligosaccharide (sugar composition by HPLC)
Assay type: biochemical, Bacillus globisporus C11
Design: unit not given here
Details: 1% (w/v) substrate, 0.1 unit/g-solid, 35° C., pH 6.0, 8 hours
measure: Sugar composition of reaction mixture, substrate Maltopentaose
Enter a number only.

Q. Which measured Sugar composition of reaction mixture, substrate Maltopentaose value corresponds to "OC[C@H]1O[C@H](OC[C@H]2O[C@H](O[C@H]3[C@H](O)[C@@H](O)[C@@H](O[C@H]4[C@H](O)[C@@H](O)[C@@H](O)O[C@@H]4CO)O[C@@H]3CO)[C@H](O)[C@@H](O)[C@@H]2O)[C@H](O)[C@@H](O)[C@@H]1O" ?
A. 0.0

Each recorded value in this set is attributed to patent US7211422B2.
